- MEASUREMENT DESCRIPTION: Pharmacokinetic study in dogs
- RUN PARAMETERS: dog, in vivo, po; Beagle dogs, plasma, after intragastric L15 hydrochloride 2 mg/kg (as free base); label = analyte
MEASURE NAME: MRT last (h)

{"MOLECULE": "c1cc2c(s1)[C@@H]1CNCCN1CC2", "READING": 1.68}

---

- TGT: TAAR1 (Homo sapiens, UniProt Q96RJ0)
- Construct: expressed in transfected cells; host or cells: CHO-K1 (cAMP Hunter TAAR1 Gs cell line)
- Sequence (Q96RJ0 whole entry): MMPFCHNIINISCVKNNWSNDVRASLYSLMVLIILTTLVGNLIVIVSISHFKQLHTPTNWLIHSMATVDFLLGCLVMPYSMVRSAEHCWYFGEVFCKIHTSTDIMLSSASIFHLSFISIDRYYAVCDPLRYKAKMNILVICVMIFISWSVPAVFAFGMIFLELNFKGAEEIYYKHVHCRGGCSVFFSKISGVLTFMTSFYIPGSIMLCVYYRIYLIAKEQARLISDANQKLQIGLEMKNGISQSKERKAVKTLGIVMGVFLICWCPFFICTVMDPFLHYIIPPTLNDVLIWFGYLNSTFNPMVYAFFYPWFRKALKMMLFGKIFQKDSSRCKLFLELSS
- MEASUREMENT DESCRIPTION: In vitro TAAR1 functional activity (cAMP Hunter CHO-K1 TAAR1 Gs cell line, HitHunter cAMP assay)
- Assay type: cell-based
- RUN PARAMETERS: cAMP Hunter CHO-K1 TAAR1 Gs cell line, chemiluminescence cAMP readout; read-out: EC50
Recorded log10 EC50 by entry
MEASURE NAME: log10 EC50 (log10 of the value in µM)

{"COMPOUND": "CNC[C@H]1NCCc2ccsc21 [Compound 38-b]", "TGT": "TAAR1 (Homo sapiens, UniProt Q96RJ0)", "READING": 0.90}
{"COMPOUND": "CNC[C@H]1SCCc2ccsc21 [Compound 40-b]", "TGT": "TAAR1 (Homo sapiens, UniProt Q96RJ0)", "READING": -0.28}
{"COMPOUND": "NC[C@H]1NCCc2ccsc21 [Compound 41-b]", "TGT": "TAAR1 (Homo sapiens, UniProt Q96RJ0)", "READING": -0.37}
{"COMPOUND": "CN1CCc2ccsc2C1CN (single isomer, unassigned) [Compound 42-b]", "TGT": "TAAR1 (Homo sapiens, UniProt Q96RJ0)", "READING": -0.61}
{"COMPOUND": "c1cc2c(s1)[C@H]1CNCCN1CC2 [Compound 1-a]", "TGT": "TAAR1 (Homo sapiens, UniProt Q96RJ0)", "READING": 0.96}
{"COMPOUND": "CN1CCN2CCc3ccsc3[C@@H]2C1 [Compound 2-a]", "TGT": "TAAR1 (Homo sapiens, UniProt Q96RJ0)", "READING": 0.64}
{"COMPOUND": "CNCC1OCCc2ccoc21 (stereo not shown) [Compound 37]", "TGT": "TAAR1 (Homo sapiens, UniProt Q96RJ0)", "READING": 0.09}
{"COMPOUND": "Fc1ccc(C2CNCCO2)s1 (stereo not shown) [Compound 9]", "TGT": "TAAR1 (Homo sapiens, UniProt Q96RJ0)", "READING": -0.13}
{"COMPOUND": "c1cc2c(s1)[C@@H]1CNCCN1CC2 [Compound 1-b]", "TGT": "TAAR1 (Homo sapiens, UniProt Q96RJ0)", "READING": -1.21}
{"COMPOUND": "c1cc(C2CC2)c(C2CNCCO2)s1 (stereo not shown) [Compound 59]", "TGT": "TAAR1 (Homo sapiens, UniProt Q96RJ0)", "READING": 0.46}
{"COMPOUND": "NCC1SCCc2ccsc21 (single isomer, unassigned) [Compound 43-b]", "TGT": "TAAR1 (Homo sapiens, UniProt Q96RJ0)", "READING": -1.51}
